Assign GI50 to each entry below.
# Tested on: MOLT-4
# experimental-protocol: NCI tumour cell line growth inhibition, 48 h
Active and inactive are the calls of the source. Cut-off read from the data, not from the text of the source: active = GI50 up to about 1.1 µM and inactive = higher.

Known GI50 results, listed for orientation:
CC1(C)[C@@H]2CC[C@@]1(C)CN(CCC[N+](C)(C)C)C2 : > 100 µM (inactive)
O=C(/C=C/c1ccc[nH]1)c1ccccc1 : > 100 µM (inactive)
CCCN(CCC)C(=O)c1c(N2CCN(C)CC2)c2cccnc2n2c(C)cnc12 : 85.9 µM (inactive)

For every item in the list below, what is its measured GI50?
1. CO[C@H](C(=O)O[C@H]1C(=O)N2CC[C@@H]3CCC[C@H]1C32C)c1ccccc1 (stereo not given in full)
2. COC1/C=C\OC2(C)Oc3c(C)c(O)c4c(O)c(c(CN(C)C)c(O)c4c3C2=O)NC(=O)/C(C)=C\C=C/C(C)C(O)C(C)C(O)C(C)C(OC(C)=O)C1C (stereo not given)
3. Cc1cn2c(C)csc2c1P(=O)(OC(C)C)OC(C)C
4. CCC12C=CCN3CC[C@]4(C(=C(C(=O)OC)[C@@H]1Nc1ccn(C5OC(COC(C)=O)C(OC(C)=O)C5OC(C)=O)c(=O)n1)Nc1ccccc14)C32 (stereo not given in full)
5. COc1ccc(NC(C)=O)c(C(O)CCNC(C)=O)c1 (stereo not given)
6. Cc1cc2c(cc1Br)C1(C)CCC(C)C1(C)O2 (stereo not given)

["> 100 µM (inactive)", "15.5 µM (inactive)", "> 100 µM (inactive)", "6.58 µM (inactive)", "> 100 µM (inactive)", "17.9 µM (inactive)"]

Quick one: give me GI50 for each item below, same order please.
1. CC(C)=CC1C(COC(=O)c2cc3c(cc2Cl)OCO3)C1(C)C (stereo not given)
2. Nc1nc(Cl)cc(NCC2(CO)CCC(O)C2)n1 (stereo not given)
3. Cc1nc(-c2nc(C)c(C(=O)/C=C/c3ccc(N(C)C)cc3)s2)sc1C(=O)/C=C/c1ccc(N(C)C)cc1
4. CC1(C)C2C=C(CCN3CCOCC3)CC1C2 (stereo not given)
5. OCCCCn1cc(Cn2ncc3c(SCc4ccccc4)ncnc32)nn1
6. C=C=C(C(=O)OC)[S+]([O-])c1ccccc1[N+](=O)[O-] (stereo not given)
7. CCC1=CC2CN3Cn4c(c(COCc5c6n(c7ccccc57)CN5CC7C=C(CC)C5C6(C(=O)OC)C7)c5ccccc54)C(C(=O)OC)(C2)C13
8. O=S(=O)(O)c1cc(/N=[N+](\[O-])c2ccc(/N=N/c3ccccc3)cc2S(=O)(=O)O)ccc1/C=C/c1ccc(/N=[N+](\[O-])c2ccc(/N=N/c3ccccc3)cc2S(=O)(=O)O)cc1S(=O)(=O)O

16.1 µM (inactive)
> 100 µM (inactive)
> 100 µM (inactive)
> 100 µM (inactive)
21.3 µM (inactive)
> 100 µM (inactive)
> 100 µM (inactive)
> 100 µM (inactive)

For each of the molecules below, note its GI50.
1. CNC(=O)CN(CC(=O)NC)C(=O)NC
2. C[C@H]1C=C2[C@@H]3CC(C)(C(=O)O)CC[C@]3(C)CC[C@]2(C)[C@]2(C)CC[C@H]3C(C)(C)[C@@H](OC(=O)c4cccc5c(=O)c6ccccc6[nH]c45)CC[C@]3(C)[C@@H]12 (stereo not given in full)
3. COc1ccc2c(C(=O)c3c(C)n(CCN4CCOCC4)c4ccccc34)cccc2c1
4. O=C(C[N+]12CN3CN(CN(C3)C1)C2)c1ccc(-c2ccccc2)cc1
5. Cc1cc2c(O)c(c1)COCc1cc(C)cc(c1O)COCc1cc(C)cc(c1O)COC2
6. CNCCCNc1c2ccccc2nc2cccc([N+](=O)[O-])c12

1: > 100 µM (inactive); 2: > 100 µM (inactive); 3: 19.4 µM (inactive); 4: 16.7 µM (inactive); 5: > 100 µM (inactive); 6: 0.00243 µM (active)

====

Record form. Attribute: GI50. Fill in for each entry.
# Tested on: SNB-75
# experimental-protocol: NCI tumour cell line growth inhibition, 48 h
Activity calls are given as the source filed them. Rule as the data show it: active = GI50 up to about 1.1 µM and inactive = higher.

Some solved entries appear below for comparison.
Cc1cc(Cl)cc2c1NC(=O)/C2=N\Nc1ccccc1[N+](=O)[O-] : > 100 µM (inactive)
O=C(CSc1nc(=O)c(-c2ccccc2NC(=O)C(F)(F)F)n[nH]1)NC(=O)Nc1ccccc1 : 21.3 µM (inactive)
O=C1CC(c2ccco2)C2(C(=O)NC(=O)NC2=O)C(c2ccco2)C1 (centres undefined) : > 75 µM (inactive)
CCC(=O)C(CCN1CCC(N2C(=O)C(CCC#N)c3ccccc32)CC1)(c1ccccc1)c1ccccc1 (centres undefined) : 12.9 µM (inactive)
COP(=O)(OC)OCN(C)CC/C=C(\C)CC/C=C(\C)CCC=C(C)C : 14.8 µM (inactive)
N/N=C1\C(OC(=O)Nc2ccccc2)=Nc2ccccc21 : 22.8 µM (inactive)
Cc1c(C(=O)Nc2ccc(Cl)c(C(F)(F)F)c2)oc2cc(O)ccc2/c1=N\NC(N)=S : > 100 µM (inactive)
c1ccc2sc(SCCSc3nc4ccccc4s3)nc2c1 : 74.3 µM (inactive)
COc1ccc(-c2cc(=O)c3c(O)cc(C)cc3o2)cc1OC : 67.1 µM (inactive)
[O-][S+]1Nc2c(Cl)cc(Cl)c3c(Cl)cc(Cl)c(c23)N1 : 26.1 µM (inactive)

# per-item lookup of GI50; items listed below
1. O=C1C(Cl)=C(N2CCN(CCOCCO)CC2)C(=O)c2c(O)ccc(O)c21
2. CC(C)(Oc1ccc(/C=C/C(=O)c2ccc(Cl)cc2)cc1)C(=O)Nc1c(Cl)cccc1Cl
3. C=C(C)CCC(O)[C@](C)(O)[C@H]1[C@H](O)C[C@@]2(C)[C@@H]3CCc4c(cc(OC5OC(CO)C(O)C(O)C5O)c(O)c4C)C3(C)C(=O)C[C@]12C (some centres undefined)

["1.6 µM (inactive)", "29.4 µM (inactive)", "> 100 µM (inactive)"]

Give the reported GI50 for this compound. CC1OC(OC2C(O[C@H]3CC[C@@]4(C)C(=CC[C@H]5[C@@H]6C[C@@H]7O[C@]8(CC[C@@H](C)CO8)[C@@H](C)[C@@H]7[C@@]6(C)CC[C@@H]54)C3)OC(CO)C(O)C2OC2OC(CO)C(O)C(O)C2O)C(O)C(O)C1O (some centres undefined) 2.04 µM (inactive)

====

I'd appreciate it if you could supply GI50 values for the items below.
# System: HT-29
# experimental-protocol: NCI tumour cell line growth inhibition, 48 h
The source made the active and inactive calls. No stated cut-off is given here; in the data, active = GI50 up to about 1.1 µM and inactive = higher.

CCOC(=O)/C(=C\c1cccc(C)c1)C(C)=O : 17.9 µM (inactive)
O=[N+]([O-])/C=C/c1ccc2ccccc2c1 : 2.53 µM (inactive)

Switching to the query record.
# return recorded GI50 for input "COC(=O)Cc1nn2c(nc1=O)sc1ccc3ccccc3c12" > 100 µM (inactive)

====

# Tested on: HOP-62
# experimental-protocol: NCI tumour cell line growth inhibition, 48 h
Activity calls are given as the source filed them. No stated cut-off is given here; in the data, active = GI50 up to about 1.1 µM and inactive = higher.
assay-metric: GI50

Some solved entries appear below for comparison.
CO[C@@]12C[C@@H](CNC(=O)c3cc(Br)c[nH]3)O[C@@H]1NC(=O)N2 : > 100 µM (inactive)
c1ccc(CSC2(SCc3ccccc3)CCCCC2)cc1 : > 10 µM (inactive)
CC[C@@H](C(=O)[C@@H](C)[C@@H](O)[C@H](C)CCc1ccc(C)c(O)c1C(=O)O)[C@H]1O[C@](CC)([C@H]2CC[C@](O)(CC)[C@H](C)O2)C[C@@H]1C [LASALOCID A SODIUM] : 1.38 µM (inactive)
Cc1c(OCc2cccc3ccccc23)ccc2c(=O)cc(SCCN3CCOCC3)oc12 : > 100 µM (inactive)
Nc1ccccc1C(=O)CCc1c[nH]c2ccccc12 : 32.2 µM (inactive)
CCOC(=O)c1cc(/C=C/C(C)=C/C(=O)OC)oc1C : > 100 µM (inactive)

Below is a list of molecules. For each, state its recorded GI50.
1. COc1cc(Cn2c(=S)ss/c2=N\C(=S)N(C)C)cc(OC)c1OC
2. O=C1CCC(=O)N1CNc1ccc2c(c1)Sc1ccccc1O2
3. Nc1nc(SCc2ccc([N+](=O)[O-])cc2)nc2c1ncn2C1OC(COP(=O)(O)O)C(O)C1O (stereo unspecified)
4. COc1ccc2c(C(=O)c3c(C)n(CCN4CCOCC4)c4ccccc34)cccc2c1
5. COc1cc(/C=N\c2ccc(C(C)C)cc2)cc(OC)c1OC
6. Cc1ccc(C)c(COCCOCn2cc(Br)c(N)nc2=O)c1

13.3 µM (inactive)
43.7 µM (inactive)
> 100 µM (inactive)
71.9 µM (inactive)
> 100 µM (inactive)
57.3 µM (inactive)

Provide reported GI50 for each item, in the same order as listed.
1. C/C(=C/CC[C@](C)(OC1OC(CO)C(O)C(O)C1OC1OC(C)C(O)C(O)C1O)[C@H]1CC[C@]2(C)[C@@H]1CC[C@@H]1[C@@]3(C)CC[C@H](O)C(C)(C)[C@@H]3C[C@H](O)[C@]12C)CO (stereo partly specified)
2. CCC12C=CCN3CC[C@]4(C(=C(C(=O)OC)[C@@H]1Nc1ccn(C5OC(COC(C)=O)C(OC(C)=O)C5OC(C)=O)c(=O)n1)Nc1ccccc14)C32 (stereo partly specified)
3. Oc1cc2cc(-c3ccccc3)[nH]c2c2ccccc12
4. CCOc1ccccc1NC(=O)/C=C1\NC(=O)CS1

1: > 100 µM (inactive); 2: 4.93 µM (inactive); 3: > 85.9 µM (inactive); 4: > 100 µM (inactive)
